- Test system: HEK-293T
- method-notes: Multiplex assay against HEK293T
- Assay type: toxicity, cell-based
- run-conditions: human, 12 h, 1 µM, compound concentration 1 uM, replicate 2
test-readout: Population Pyknosed Nuclei (%)
Field format: number, assumed %, no unit text.

[[record]]
compound = "COc1cc(NC(=O)CCN2CCC(OC(=O)Nc3ccccc3-c3ccccc3)CC2)c(Cl)cc1CNC[C@H](O)c1ccc(O)c2[nH]c(=O)ccc12"
recorded_number = 17

[[record]]
compound = "Cc1ccc(F)cc1C(=O)Nc1ccc(C(=O)N2Cc3cccn3Cc3ccccc32)c(Cl)c1"
recorded_number = 19

[[record]]
compound = "Cc1ccc(/C(=C\\CN2CCCC2)c2ccccn2)cc1"
recorded_number = 11

[[record]]
compound = "CN1CCN(c2nc3cc(C(F)(F)F)ccc3n3cccc23)CC1.O=C(O)/C=C\\C(=O)O.O=C(O)/C=C\\C(=O)O"
recorded_number = 14

[[record]]
compound = "O=C(NCCO)c1cccc(-c2cc(Nc3ccc(OC(F)(F)F)cc3)ncn2)c1"
recorded_number = 17

[[record]]
compound = "CCCn1c(=O)c2[nH]c(C3CCCC3)nc2n(CCC)c1=O"
recorded_number = 14

[[record]]
compound = "O=C(O)c1cc2ccccc2c(Cc2c(O)c(C(=O)O)cc3ccccc23)c1O"
recorded_number = 15

[[record]]
compound = "Cc1ccc(-c2ccc(F)cc2COc2ccc(CCC(=O)O)cc2)cc1"
recorded_number = 15


For the compound shown here, CN1CCN2c3ncccc3Cc3ccccc3C2C1 (configuration not stated) , give the reported Population Pyknosed Nuclei (%).
17

Queued: `COc1cc(C(=O)N(CCCc2ccccc2)Cc2ccc(CC(=O)O)cc2)cc(OC)c1C`
9

Queued: Cl.Clc1ccc2nsnc2c1NC1=NCCN1 [TIZANIDINE HYDROCHLORIDE]
13

Queued: `CCNC1(C(N)=O)CCN(c2ncnc3c2nc(-c2ccccc2Cl)n3-c2ccc(Cl)cc2)CC1`
15

Queued: `Oc1c(CN2CCN(c3ccccn3)CC2)cc(Cl)c2cccnc12`
13

* * *

- Tested on: U2OS
- method-notes: Multiplex assay against U2OS
- Format: toxicity, cell-based
- run-conditions: human, 12 h, 10 µM, compound concentration 10 uM, replicate 2
Reported Population Mitotic Cells (%) is given for each of the following compounds.
Field format: number, assumed %, no unit text.

[[record]]
compound = "O=C1COc2nccc(-c3ccccc3F)c2CN1Cc1cc(C(F)(F)F)cc(C(F)(F)F)c1"
recorded_number = 0

[[record]]
compound = "CN1CCN2c3ncccc3Cc3ccccc3C2C1 (configuration not stated) [MIRTAZAPINE]"
recorded_number = 33

[[record]]
compound = "CCCC(CCC)C(=O)O [VALPROIC ACID]"
recorded_number = 14

[[record]]
compound = "Oc1c(CN2CCN(c3ccccn3)CC2)cc(Cl)c2cccnc12"
recorded_number = 12

[[record]]
compound = "C[C@H](NC(=O)c1c(C(F)F)nn(C)c1Oc1cccc(C(F)(F)F)c1)c1ccc(C(=O)O)cc1 [PALUPIPRANT]"
recorded_number = 0


For the compound shown here, CC(C)(C)c1ccc(S(=O)(=O)Nc2ccc(Cl)cc2C(=O)c2cc[n+]([O-])cc2)cc1 [VERCIRNON] , give the reported Population Mitotic Cells (%).
50

Queued: CNC[C@H](O)c1ccc(O)c(O)c1 [EPINEPHRINE]
13

Queued: CCCN1CCC[C@@H]2Cc3n[nH]cc3C[C@H]21.Cl [QUINPIROLE HYDROCHLORIDE]
0

Queued: N#Cc1c(N)nc(SCc2csc(-c3ccc(Cl)cc3)n2)c(C#N)c1-c1ccc(OCCO)cc1 [CAPADENOSON]
31

Queued: CC(=O)NCCc1c(Cc2ccccc2)[nH]c2ccccc12 [LUZINDOLE]
23

Queued: `Cc1ccc(-c2ccc(F)cc2COc2ccc(CCC(=O)O)cc2)cc1`
16

Queued: COc1ccc2c(c1)C(C(=O)N(Cc1ccc(N(C)C)cc1)c1ccc(C(C)C)cc1)CCC2.Cl (configuration not stated)
40

Queued: `CCOc1c2c(c(OCC)c3ncccc13)CN(c1ccc(CS(=O)(=O)NC(=O)Cc3ccccc3OC)cc1C)C2=O`
20
